Target: adenosine A3 receptor (A3R) (Homo sapiens, UniProt P0DMS8)
Construct: expressed in transfected cells; host or cells: CHO-K1
Sequence (P0DMS8 1-318): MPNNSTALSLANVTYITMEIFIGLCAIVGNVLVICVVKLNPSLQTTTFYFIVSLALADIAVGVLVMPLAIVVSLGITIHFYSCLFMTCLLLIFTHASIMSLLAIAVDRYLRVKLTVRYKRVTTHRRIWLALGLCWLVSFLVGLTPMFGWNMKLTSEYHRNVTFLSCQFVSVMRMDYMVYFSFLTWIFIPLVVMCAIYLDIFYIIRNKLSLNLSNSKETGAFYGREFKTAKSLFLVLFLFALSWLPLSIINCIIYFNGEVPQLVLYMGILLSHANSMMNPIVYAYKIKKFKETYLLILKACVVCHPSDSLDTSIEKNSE
Experiment: Inhibition of adenosine A3 receptor cAMP signaling pathway in CHO-K1/A3R cells (HTRF cAMP dynamic 2 kit)
Format: cell-based
Settings: Table 3; selectivity A3R over A2aR
Reported IC50 ratio (A3R/A2aR) values follow for various compounds

Note down IC50 ratio (A3R/A2aR) recorded for Cc1ccc(-c2nc(N)nc3c(Cc4cccc(CN5CC6(COC6)C5)n4)cnn23)o1
>10^3

Note down IC50 ratio (A3R/A2aR) recorded for CCCc1cccc(Cc2cnn3c(-c4ccc(C)o4)nc(N)nc23)n1
>10^3

Note down IC50 ratio (A3R/A2aR) recorded for Cc1ccc(-c2nc(N)nc3c(Oc4cccc(CO[C@H]5CCOC5)n4)cnn23)o1
>10^3

Note down IC50 ratio (A3R/A2aR) recorded for Cc1ccc(-c2nc(N)nc3c(Nc4cccc(CN5CCOCC5)n4)cnn23)o1
514^

Note down IC50 ratio (A3R/A2aR) recorded for Cc1ccc(-c2nc(N)nc3c(Nc4cccc(CO[C@H]5CCOC5)n4)cnn23)o1
>10^3

Note down IC50 ratio (A3R/A2aR) recorded for Cc1ccc(-c2nc(N)nc3c(Nc4cccc(CN5CC6(COC6)C5)n4)cnn23)o1
>10^3

Note down IC50 ratio (A3R/A2aR) recorded for Cc1ccc(-c2nc(N)nc3c(Cc4cccc(CO[C@H]5CCN(C)C5)n4)cnn23)o1
>10^3

Note down IC50 ratio (A3R/A2aR) recorded for Cc1ccc(-c2nc(N)nc3c(Cc4ccccc4F)cnn23)o1
>10^4

Note down IC50 ratio (A3R/A2aR) recorded for Cc1ccc(-c2nc(N)nc3c(Cc4cccc(CN5CCOCC5)n4)cnn23)o1
>10^3

Note down IC50 ratio (A3R/A2aR) recorded for COCc1cccc(Cc2cnn3c(-c4ccc(C)o4)nc(N)nc23)n1
>10^3

Note down IC50 ratio (A3R/A2aR) recorded for Cc1ccc(-c2nc(N)nc3c(Cc4cccc(COCCF)n4)cnn23)o1
>10^3
